Overview of reported folding stability dG unfold across a group of sequences:
- assay.overview: folding stability dG unfold from chymotrypsin proteolysis; higher = more stable

[[record]]
entry_sequence = "SAGGSAGGSLKPFPIEDITVQPRRNPDGNRYYQVSIRIKGPGRPINIPFPMDNPKKFLEDIIKSAGGSAGGS [r20_238_TrROS]"
assay_result = "0.143 kcal/mol"

[[record]]
entry_sequence = "SAGGWIWIPPDDPEDAKEWARELVLMFANHMKEQGQEDMTVDVDIHVWDPKDGNWYRIPVEFRVKPDSAGGS [r8_163_TrROS]"
assay_result = "2.31 kcal/mol"

[[record]]
entry_sequence = "SAGGSAGGSAGGKTYTAEELRSLPPGAKITLADGKVIEVSIEQLEKEIKPGDTVRIERVPSAGGSAGGSAGG [r7_643_TrROS_Hall]"
assay_result = "-0.404 kcal/mol"


What value of measured folding stability dG unfold is listed for SEEEYLVIEVEFEVENPEEAREFAERLARELPLDEIESLEVEVEPREVFVEGEPVGPVYRFRVRAVVRPRSA [r9_605_TrMRF] ?
2.98 kcal/mol

What value of measured folding stability dG unfold is listed for SAGPTVRQETFGEKYRIEVEVSPDGTVKVKIVNENGEVTELEGKVEPGKPVVLPFPLDGHVVNVVVLPASAG [r5_237_TrMRF] ?
2.91 kcal/mol

What value of measured folding stability dG unfold is listed for SAMNVTLTKHPDGTYTVGATLPGYSPVSTQTIPSSVPSYTVTYRTPDEVLKVTYKDSGLTPERVPISRLSAG [r14_403_JUSTAS] ?
0.395 kcal/mol

What value of measured folding stability dG unfold is listed for SAGKPKIIEEKTITVPPGATLTIEFPPEVKRIEIINLDTGKTETIEIKPGEKLTFTFPPGSTVRVRVLSAGG [r19_118_TrROS_Hall] ?
4.06 kcal/mol

What value of measured folding stability dG unfold is listed for SAGGSAPPPIKIKFKYPNGRPMELEFNPENGNYEIKQPDGEKEEVPMENIKEIRIPPGIKDVEIVPSAGGSA [r15_1043_TrROS] ?
-0.0709 kcal/mol

Where do these numbers come from? They come from the supplement of paper PMC12764529.
